- TGT: Phosphodiesterase 4 (Homo sapiens) (UniProt P27815+Q08499+Q07343+Q08493)
- EXPERIMENT: Inhibitory activity towards cAMP phosphodiesterase isolated from rabbit lung.
- Type: protein assay
- Design: unit not given here
- CONDITION_PARAMETERS: Oryctolagus cuniculus; target entry is the homologue from another species
Activity under 8 gets Met, anything at or over 8 gets Not met.

>>> qualitative_label("c1ccc(-c2cc3ncnc(N4CCCCC4)n3n2)cc1")
"Not met"
>>> qualitative_label("CCc1nc(CC)n2nc(-c3ccccc3)cc2n1")
"Not met"
>>> qualitative_label("COc1nc(SC)nc2ccnn12")
"Met"
>>> qualitative_label("CCc1nc(C)nc2c(Br)c(-c3ccccc3)nn12")
"Not met"
>>> qualitative_label("CCc1nc(C)nc2c(C#N)cnn12")
"Met"
>>> qualitative_label("CCCOc1nc(SC)nc2c(Br)cnn12")
"Met"
>>> qualitative_label("CCc1nc(C)nc2ccnn12")
"Met"
>>> qualitative_label("CCc1nc(C)nc2c(-c3ccccc3)cnn12")
"Not met"
>>> qualitative_label("Cc1nc(C)n2ncc(-c3ccccc3)c2n1")
"Not met"
>>> qualitative_label("CCc1nc(C)nc2c(Cl)cnn12")
"Met"
>>> qualitative_label("CCN(CC)c1ncnc2c(Br)c(-c3ccccc3)nn12")
"Not met"
>>> qualitative_label("CCCNc1nc(SC)nc2ccnn12")
"Not met"
>>> qualitative_label("CCN(CC)c1nc(SC)nc2c(Br)cnn12")
"Not met"

* * *

- TGT: Phosphodiesterase 4 (Homo sapiens) (UniProt P27815+Q08499+Q07343+Q08493)
- EXPERIMENT: Inhibitory activity towards cAMP phosphodiesterase isolated from rabbit lung.
- Format: protein assay
- Parameters: unit not given here
- CONDITION_PARAMETERS: Oryctolagus cuniculus; target entry is the homologue from another species
Please use MET whenever Activity is not below 20, and NOT MET whenever it is.

>>> qualitative_label("CCc1nc(C)nc2cc(-c3ccccc3)nn12")
"MET"
>>> qualitative_label("CCc1nc(C)n2nc(-c3ccccc3)cc2n1")
"NOT MET"
>>> qualitative_label("CCCNc1ncnc2cc(-c3ccccc3)nn12")
"MET"
>>> qualitative_label("CCNc1nc(SC)nc2c(Br)cnn12")
"MET"
>>> qualitative_label("CCc1nc(C)nc2c(Br)cnn12")
"NOT MET"
>>> qualitative_label("CCc1nc(CC)n2nc(-c3ccccc3C)cc2n1")
"NOT MET"
>>> qualitative_label("CCSc1nc(SC)nc2ccnn12")
"NOT MET"

* * *

- TGT: Phosphodiesterase 4 (Homo sapiens) (UniProt P27815+Q08499+Q07343+Q08493)
- EXPERIMENT: Inhibitory activity towards cAMP phosphodiesterase isolated from bovine heart.
- Assay type: protein assay
- Parameters: unit not given here
- CONDITION_PARAMETERS: Bos taurus; target entry is the homologue from another species
PARAMETER_MEASURED: Activity

>>> measured_number("CCc1nc(CC)n2nc(-c3ccccc3)c(Br)c2n1")
2
>>> measured_number("CCc1nc(C)nc2cc(-c3ccccc3)nn12")
4
>>> measured_number("Cc1nc(O)n2nc(-c3ccccc3)cc2n1")
0.5
>>> measured_number("Cc1ncn2nc(-c3ccccc3)cc2n1")
3
>>> measured_number("Cc1nc(C)n2ncc(-c3ccccc3)c2n1")
3
>>> measured_number("CCc1nc(C)nc2ccnn12")
0.7

* * *

- EXPERIMENT: Inhibition of rabbit lung cAMP Phosphodiesterase
- Design: species or system Oryctolagus cuniculus
- CONDITION_PARAMETERS: read-out: I50
PARAMETER_MEASURED: IC50

>>> result("Cn1c(=O)c2nc[nH]c2n(C)c1=O [THEOPHYLLINE]")
"210 µM"

* * *

- EXPERIMENT: Inhibition of bovine heart cAMP Phosphodiesterase
- Set-up: species or system Bos taurus
pKi: −log10 of the molar value.
PARAMETER_MEASURED: pKi

>>> measured_number("Cn1c(=O)c2nc[nH]c2n(C)c1=O")
4.11

* * *

- TGT: Phosphodiesterase 4 (Homo sapiens) (UniProt P27815+Q08499+Q07343+Q08493)
- EXPERIMENT: Inhibitory activity towards cAMP phosphodiesterase isolated from bovine heart.
- Assay type: protein assay
- Design: unit not given here
- CONDITION_PARAMETERS: Bos taurus; target entry is the homologue from another species
Entries and their measured Activity follow.
PARAMETER_MEASURED: Activity

>>> measured_number("Cc1cccc(-c2cnn3cnc(C)nc23)c1")
0.4
>>> measured_number("CCc1nc(C)nc2c(-c3ccccc3)cnn12")
10
>>> measured_number("CCCc1nc(C)nc2c(Br)c(-c3ccccc3)nn12")
2
>>> measured_number("CCc1ncn2nc(-c3ccccc3)cc2n1")
0.5
>>> measured_number("Cc1cccc(-c2cnn3c(C)nc(C)nc23)c1")
2
>>> measured_number("c1ccc(-c2cc3ncnc(N4CCCCC4)n3n2)cc1")
11
>>> measured_number("Cc1nc(C)n2nc(-c3ccccc3)c(Br)c2n1")
3
>>> measured_number("CCCNc1ncnc2cc(-c3ccccc3)nn12")
3.8
>>> measured_number("CCCCNc1ncnc2cc(-c3ccccc3)nn12")
2.5
>>> measured_number("CCc1nc(C)nc2c(Br)c(-c3ccccc3)nn12")
7
>>> measured_number("CCc1nc(C)n2nccc2n1")
0.5
>>> measured_number("CCN(CC)c1ncnc2c(Br)c(-c3ccccc3)nn12")
40
>>> measured_number("CCN(CC)c1ncnc2cc(-c3ccccc3)nn12")
57
>>> measured_number("Cc1ncn2nc(-c3ccccc3)c(Br)c2n1")
0.9
>>> measured_number("CCc1nc(C)nc2c(Br)cnn12")
1
>>> measured_number("CCCCNc1nc(C)nc2cc(-c3ccccc3)nn12")
1.7
>>> measured_number("CCc1nc(C)nc2cc(-c3ccc(OC)cc3)nn12")
3
>>> measured_number("CCc1nc(C)nc2c(Cl)cnn12")
0.8
>>> measured_number("CCCc1nc(C)nc2cc(-c3ccccc3)nn12")
11
>>> measured_number("CCc1nc(CC)n2nc(-c3ccccc3)cc2n1")
7
>>> measured_number("CCc1nc(C)nc2c(C#N)cnn12")
1.7
>>> measured_number("CCOC(=O)c1cnn2c(CC)nc(C)nc12")
1.2
>>> measured_number("CCc1nc(CC)n2nc(-c3ccccc3C)cc2n1")
16
>>> measured_number("Cc1nc(C)n2nccc2n1")
0.9
>>> measured_number("Cc1nc(C)n2nc(-c3ccccc3)cc2n1")
3.5
>>> measured_number("CCc1nc(C)nc2c(-c3cccc(C)c3)cnn12")
5
>>> measured_number("CCc1nc(CC)n2nc(-c3ccc(OC)cc3)cc2n1")
8
>>> measured_number("CCc1nc(C)n2nc(-c3ccccc3)cc2n1")
2.7

* * *

- Organism: Bos taurus
- EXPERIMENT: Inhibition of bovine brain cAMP Phosphodiesterase
- Set-up: unit not given here
Activity under 40 gets label 1, anything at or over 40 gets label 0.

>>> qualitative_label("Cc1nc(O)n2nc(-c3ccccc3)cc2n1")
"label 1"
>>> qualitative_label("CCc1nc(CC)n2nc(-c3ccccc3C)cc2n1")
"label 0"
>>> qualitative_label("CCN(CC)c1ncnc2cc(-c3ccccc3)nn12")
"label 0"
>>> qualitative_label("CCc1ncn2nc(-c3ccccc3)cc2n1")
"label 0"
>>> qualitative_label("Cc1ncn2nc(-c3ccccc3)cc2n1")
"label 0"
>>> qualitative_label("CCc1nc(CC)n2nc(-c3ccccc3)cc2n1")
"label 1"
>>> qualitative_label("Cc1nc(C)n2nc(-c3ccccc3)cc2n1")
"label 1"

* * *

Entries and their measured Activity follow.
- TGT: Phosphodiesterase 4 (Homo sapiens) (UniProt P27815+Q08499+Q07343+Q08493)
- EXPERIMENT: Inhibitory activity towards cAMP phosphodiesterase isolated from rabbit lung.
- Format: protein assay
- Design: unit not given here
- CONDITION_PARAMETERS: Oryctolagus cuniculus; target entry is the homologue from another species
PARAMETER_MEASURED: Activity

>>> measured_number("COc1nc(SC)nc2c(Br)cnn12")
9
>>> measured_number("CSc1nc(OC(C)C)n2ncc(Br)c2n1")
1.5
>>> measured_number("CCCCNc1nc(SC)nc2c(Br)cnn12")
160
>>> measured_number("CSc1nc(C)n2nccc2n1")
1.6
>>> measured_number("CCc1nc(CC)n2nc(-c3ccc(OC)cc3)cc2n1")
14
>>> measured_number("CCCCNc1nc(C)nc2cc(-c3ccccc3)nn12")
11
>>> measured_number("CCN(CC)c1nc(SC)nc2ccnn12")
19

* * *

- TGT: Phosphodiesterase 4 (Homo sapiens) (UniProt P27815+Q08499+Q07343+Q08493)
- EXPERIMENT: Inhibitory activity towards cAMP phosphodiesterase isolated from rabbit lung.
- Type: protein assay
- Set-up: unit not given here
- CONDITION_PARAMETERS: Oryctolagus cuniculus; target entry is the homologue from another species
Please use Criterion met whenever Activity is not below 10, and Criterion not met whenever it is.

>>> qualitative_label("Cc1ncn2nc(-c3ccccc3)c(Br)c2n1")
"Criterion not met"
>>> qualitative_label("CCN(CC)c1ncnc2cc(-c3ccccc3)nn12")
"Criterion met"
>>> qualitative_label("CCc1nc(C)n2nccc2n1")
"Criterion not met"
>>> qualitative_label("Cc1cccc(-c2cnn3c(C)nc(C)nc23)c1")
"Criterion met"
>>> qualitative_label("Cc1nc(O)n2nc(-c3ccccc3)cc2n1")
"Criterion not met"
>>> qualitative_label("CSc1nc(SC)n2ncc(Br)c2n1")
"Criterion not met"
>>> qualitative_label("Cc1nc(C)n2nccc2n1")
"Criterion not met"
>>> qualitative_label("Cc1nc(C)n2nc(-c3ccccc3)cc2n1")
"Criterion met"
>>> qualitative_label("CCc1nc(C)nc2cc(-c3ccc(OC)cc3)nn12")
"Criterion met"
>>> qualitative_label("CCOC(=O)c1cnn2c(CC)nc(C)nc12")
"Criterion not met"
>>> qualitative_label("CCc1nc(CC)n2nc(-c3ccccc3)c(Br)c2n1")
"Criterion not met"
>>> qualitative_label("Cc1cccc(-c2cnn3cnc(C)nc23)c1")
"Criterion not met"
